// data source = paper PMC8964227

System: HT-22 cells
Method Notes: MTT cytotoxicity assay, HT-22
Format: cell-based, mouse
Test Settings: Mus musculus, HT-22; 72 h, MTT
Reported Property: pIC50
The meaning of pIC50 here: minus log10 of the concentration in molar units.

Asked: Give pIC50 for "CCCC[Se]c1c(-c2ccccc2)nc2cc(C)ccn12"
Given back: 4.51

Asked: Give pIC50 for "Cc1ccn2c([Se]c3cccs3)c(-c3ccccc3)nc2c1"
Given back: 4.97

Asked: Give pIC50 for "Cc1ccn2c([Se]c3ccc(Cl)cc3)c(-c3ccccc3)nc2c1"
Given back: 3.51

Asked: Give pIC50 for "Cc1ccn2c([Se]c3ccccc3)c(-c3ccccc3)nc2c1"
Given back: 4.12

Asked: Give pIC50 for "COc1ccc(-c2nc3cc(C)ccn3c2[Se]c2ccccc2)cc1"
Given back: 4.52

Asked: Give pIC50 for "COc1ccc([Se]c2c(-c3ccccc3)nc3cc(C)ccn23)cc1"
Given back: 5.41

Asked: Give pIC50 for "COc1ccccc1[Se]c1c(-c2ccccc2)nc2cc(C)ccn12"
Given back: 4.19

Asked: Give pIC50 for "Cc1ccn2c([Se]c3cccc4ccccc34)c(-c3ccccc3)nc2c1"
Given back: 3.69

Asked: Give pIC50 for "c1ccc([Se]c2c(-c3ccccc3)nc3ncccn23)cc1"
Given back: 5.22

Asked: Give pIC50 for "Cc1ccn2cc(-c3ccccc3)nc2c1"
Given back: 3.81

Asked: Give pIC50 for "Cc1ccc([Se]c2c(-c3ccccc3)nc3cc(C)ccn23)cc1"
Given back: 3.84

---

Tested on: A172 cells
Method Notes: MTT cytotoxicity assay, A172
Assay type: cell-based, human
Test Settings: Homo sapiens, A 172; 72 h, MTT
For each entry below, report its pIC50 value.
The meaning of pIC50 here: minus log10 of the concentration in molar units.

Asked: Give pIC50 for "COc1ccc(-c2nc3cc(C)ccn3c2[Se]c2ccccc2)cc1"
Given back: 4.73

Asked: Give pIC50 for "Cc1ccn2c([Se]c3cccs3)c(-c3ccccc3)nc2c1"
Given back: 4.55

Asked: Give pIC50 for "Cc1ccn2cc(-c3ccccc3)nc2c1"
Given back: 4.12

Asked: Give pIC50 for "COc1ccc([Se]c2c(-c3ccccc3)nc3cc(C)ccn23)cc1"
Given back: 4.56

Asked: Give pIC50 for "Cc1ccn2c([Se]c3ccc(Cl)cc3)c(-c3ccccc3)nc2c1"
Given back: 4.36

Asked: Give pIC50 for "CCCC[Se]c1c(-c2ccccc2)nc2cc(C)ccn12"
Given back: 4.68

Asked: Give pIC50 for "Cc1ccn2c([Se]c3cccc4ccccc34)c(-c3ccccc3)nc2c1"
Given back: 4.68

Asked: Give pIC50 for "c1ccc([Se]c2c(-c3ccccc3)nc3ncccn23)cc1"
Given back: 4.66

Asked: Give pIC50 for "COc1ccccc1[Se]c1c(-c2ccccc2)nc2cc(C)ccn12"
Given back: 5.74

Asked: Give pIC50 for "Cc1ccn2c([Se]c3ccccc3)c(-c3ccccc3)nc2c1"
Given back: 4.01

Asked: Give pIC50 for "Cc1ccc([Se]c2c(-c3ccccc3)nc3cc(C)ccn23)cc1"
Given back: 4.14
